Recorded measurements of MBC, one per entry
System: Staphylococcus aureus
Procedure Summary: Bactericidal activity against methicillin-resistant Staphylococcus aureus PU 32 harboring i-ermA gene incubated for 16 to 20 hrs by CLSI based broth microdilution method
Type: functional
Details: time 16-20 hrs

The cases that follow already have their MBC on record.
>>> reported_measurement("CC[C@H]1OC(=O)[C@H](C)[C@@H](OC(=O)CCNCCCCNc2cc3c(cc2F)c(=O)c(C(=O)O)cn3C2CC2)[C@H](C)[C@@H](O[C@@H]2O[C@H](C)C[C@H](N(C)C)[C@H]2O)[C@](C)(OC)C[C@@H](C)/C(=N\\OC/C=C/c2cncc(C(=O)NC)c2)[C@H](C)[C@H]2OC(=O)O[C@@]21C")
"> 256 µg/mL"
>>> reported_measurement("CC[C@H]1OC(=O)[C@H](C)[C@@H](OC(=O)CCNCCCCCCCNc2cc3c(cc2F)c(=O)c(C(=O)O)cn3C2CC2)[C@H](C)[C@@H](O[C@@H]2O[C@H](C)C[C@H](N(C)C)[C@H]2O)[C@](C)(OC)C[C@@H](C)/C(=N\\OC)[C@H](C)[C@H]2OC(=O)O[C@@]21C")
"16 µg/mL"
>>> reported_measurement("CC[C@H]1OC(=O)[C@H](C)C(=O)[C@H](C)[C@@H](O[C@@H]2O[C@H](C)C[C@H](N(C)C)[C@H]2O)[C@](C)(OC)C[C@@H](C)C(=O)[C@H](C)[C@H]2N(CCCCn3cnc(-c4cccnc4)c3)C(=O)O[C@]12C [TELITHROMYCIN]")
"1 µg/mL"

Short answer please: MBC, Staphylococcus aureus, entry CC[C@H]1OC(=O)[C@H](C)[C@@H](OC(=O)CCNCCCCNc2cc3c(cc2F)c(=O)c(C(=O)O)cn3C2CC2)[C@H](C)[C@@H](O[C@@H]2O[C@H](C)C[C@H](N(C)C)[C@H]2O)[C@](C)(OC)C[C@@H](C)/C(=N\OC/C=C/c2ccc3c(c2)c(=O)c(C(N)=O)cn3CC)[C@H](C)[C@H]2OC(=O)O[C@@]21C
> 256 µg/mL

From: ChEMBL document CHEMBL5608186
